pIC50: −log10 of the molar value.
// each record: one item and its pIC50 for HDAC6 (Homo sapiens)

Molecule	Assayed System	Censoring Sign	pIC50
O=C(CCCc1ccccc1)CCc1ccc(O)c(O)c1 [Compound 8d]	HDAC6 (Homo sapiens)	<	4.40
O=C(/C=C/c1ccc(O)c([N+](=O)[O-])c1)CCCCc1ccccc1 [Compound 4i]	HDAC6 (Homo sapiens)	<	4.40
O=C(/C=C/c1cccc(O)c1)CCCCc1ccccc1 [Compound 4d]	HDAC6 (Homo sapiens)	<	4.40
O=C(/C=C/c1ccc(O)c(O)c1)CCc1ccccc1 [Compound 7c]	HDAC6 (Homo sapiens)	=	4.46
O=C(CCCCc1ccccc1)CCc1ccc(O)c(F)c1 [Compound 5f]	HDAC6 (Homo sapiens)	<	4.40
O=C(/C=C/c1cccc(O)c1O)CCCCc1ccccc1 [Compound 4e]	HDAC6 (Homo sapiens)	=	4.53
O=C(/C=C/c1ccc(O)c(O)c1)Cc1ccccc1 [Compound 7b]	HDAC6 (Homo sapiens)	=	4.43
O=C(/C=C/c1ccc(O)c(O)c1)CCCc1ccccc1 [Compound 7d]	HDAC6 (Homo sapiens)	=	4.43
O=C(/C=C/c1ccc(O)c(O)c1)CCCCc1ccccc1 [Compound 4c]	HDAC6 (Homo sapiens)	=	4.74
O=C(CCCCc1ccccc1)CCc1cccc(O)c1 [Compound 5d]	HDAC6 (Homo sapiens)	<	4.40
O=C(/C=C/c1ccccc1)CCCCc1ccccc1 [Compound 4a]	HDAC6 (Homo sapiens)	<	4.40
O=C(/C=C/c1ccc(O)c(O)c1)c1ccccc1 [Compound 7a]	HDAC6 (Homo sapiens)	=	4.58
